Every entry's value here was drawn from ChEMBL document CHEMBL5053468.

Assignment: determine reported inhibition for the given molecules.
Target: Membrane-bound ghrelin O-acyltransferase MBOAT4 (Homo sapiens)
Test: Inhibition of human GOAT expressed in baculovirus infected Sf9 cells at 10 uM using octanoyl-CoA and ghrelin-biotin as substrate preincubated for 20 mins followed by substrate addition and measured after = > 1 hr by HTRF assay relative to control
Conditions: time hrs >=1
Numbers only, in %.

For orientation, consider the following solved cases.
STRUCTURE	UNITS	inhibition
Cn1nc(C(F)(F)F)cc1COc1cc(Cl)c2c(CC(=O)O)csc2c1Cl	%	105
Cc1cc(COc2cc(Cl)c3c(CC(=O)O)csc3c2)n(C)n1	%	105
Cc1nc(C(F)(F)F)ccc1COc1cc(C)c2c(CC(=O)O)csc2c1F	%	106
Cc1nc(C(F)(F)F)ccc1COc1cc(Cl)c2c(CC(=O)O)csc2c1	%	101
Cc1nc(C(F)(F)F)ncc1COc1cc(C)c2c(CC(=O)O)csc2c1	%	100
Cc1ccc(COc2cc(C)c3c(CC(=O)O)coc3c2C)c(C)n1	%	102
Cc1nc(C(F)(F)F)ccc1COc1cc(Cl)c2c(CC(=O)O)c(C)sc2c1	%	103
COC(=O)Cc1csc2cc(OCc3ccc(C)nc3C)cc(Cl)c12	%	96.5
CCOC(=O)Cc1csc2cc(OCc3cc(C(F)(F)F)nn3C)ccc12	%	88.9

Now consider a different molecule.
Problem: If you can, please state the reported inhibition value of CCOC(=O)Cc1csc2cc(OCc3ccc(Cl)cc3Cl)ccc12 .
Solution: 69
